Test system: PC-3 prostate
Experiment: NCI tumour cell line growth inhibition, 48 h
Below, each entry is listed with its recorded TGI.
observable: TGI

>>> value("CC(C)c1ccc2[nH]c(O)c(C3=Nc4ccccc4C3=O)c2c1")
"54.8 µM"
>>> value("CC(C)c1nc2c(Cl)c3ncccc3cc2[nH]c1=O")
"> 100 µM"
>>> value("CN(C)c1ccc(N=Nc2cccc3ncccc23)cc1")
"> 100 µM"
>>> value("CC(C)CCCC(C)[C@H]1CC[C@H]2[C@@H]3CC[C@H]4C[C@@H](CCC=C(c5cc(Cl)c(O)c(C(=O)O)c5)c5cc(Cl)c(O)c(C(=O)O)c5)CC[C@]4(C)[C@H]3CC[C@]12C (stereo partly specified) (tested in a mixture with another compound)")
"> 50 µM"
>>> value("COc1ccc(/C=C/C(=O)c2cc3c(N)c(C(=O)Nc4ccccc4)sc3nc2C)cc1")
"> 50 µM"
>>> value("O=S1c2ccccc2SCSc2ccccc21")
"> 100 µM"

---

Listed here: items and their measured GI50.
Tested on: SK-OV-3 ovarian
Test: NCI tumour cell line growth inhibition, 48 h
observable: GI50

>>> value("O=C(/C=C/c1ccc(C(F)(F)F)cc1)c1ccc(Nc2nc(NCCO)nc(N3CCOCC3)n2)cc1")
"3.82 µM"
>>> value("CCCCCCCCCCCC[n+]1ccc(C(N)=O)cc1")
"4.18 µM"
>>> value("CN(C)c1ccc(O)c2c1C[C@H]1C[C@H]3[C@H](N(C)C)C(=O)C(C(N)=O)=C(O)[C@@]3(O)C(=O)C1=C2O")
"3.92 µM"
>>> value("N#CC1=C(N)Oc2c(sc3c(F)cccc23)C1c1ccc(F)cc1 (configuration not stated)")
"1.61 µM"
>>> value("Cc1nn(-c2nc3ccccc3[nH]2)c2c1C(c1ccc3c(c1)OCO3)CC(=O)N2 (configuration not stated)")
"2.63 µM"
>>> value("CSC1C(=O)c2ccccc2/C(=N/Nc2nc3ccccc3s2)C1C (configuration not stated)")
"35.2 µM"
>>> value("O=C(CCCCCCC(=O)Nc1ccc2c(c1)/C(=C/c1ccc[nH]1)C(=O)N2)NO")
"0.341 µM"

---

Test system: SN12C renal
Assay: NCI tumour cell line growth inhibition, 48 h
observable: TGI

>>> value("Cc1cc(-c2nc3cc(O)ccc3s2)ccc1N")
"74.2 µM"
>>> value("COc1ccc2c(c1)N=C1CSC(c3c(Cl)cccc3[N+](=O)[O-])N1C2 (stereo not drawn)")
"> 100 µM"
>>> value("Fc1ccc(Nc2nnc(-c3ccccn3)s2)cc1")
"> 100 µM"
>>> value("Nc1ccccc1OCc1cc(=O)c(OCc2ccccc2)co1")
"0.823 µM"
>>> value("Cc1ccc(N2C(=O)/C(=C/c3ccc(N(CCC#N)CCC#N)cc3C)N=C2c2cc([N+](=O)[O-])ccc2Cl)cc1")
"> 100 µM"
>>> value("O=C1CCc2cc3c(cc21)CC1(Cc2cc4c(cc2C1)CCCC4)C3")
"> 100 µM"
>>> value("COc1cccc2c(=O)c3c(sc12)c(NCCN(C)C)nc1ccccc13")
"2.58 µM"
>>> value("COc1ccc(CCc2ccccc2CC(=O)O)cc1")
"> 100 µM"
>>> value("OCCNCCNc1c2ccccc2nc2oc3ccccc3c12")
"57.7 µM"
>>> value("Oc1c(N=Nc2ccccc2)c2ccccc2c2ccc3ccccc3c12")
"> 100 µM"
>>> value("C[CH2][Sn]([Cl])([Cl])[CH2]C")
"> 78.6 µM"
>>> value("c1ccc2c3c([nH]c2c1)C1(CCCCC1)c1c([nH]c2ccccc12)C31CCCCC1")
"> 100 µM"
>>> value("CC(C)(C)N(Cc1ccoc1)C(=O)/C=C\\S(=O)c1ccccc1 (stereo not drawn)")
"58.5 µM"
>>> value("Clc1ccc(SCCCCCCCCCCSc2ccc(Cl)cc2)cc1")
"> 100 µM"
>>> value("COc1cc(-c2oc3c(OC)c(O)c(OC)c(O)c3c(=O)c2OC)ccc1O")
"> 100 µM"
>>> value("CCOC(=O)NC(=O)c1cn(CCN2CCN(C(=O)NCCCCCCNC(=O)N3CCN(CCn4cc(C(=O)NC(=O)OCC)c(=O)n(CCN(CC)CC)c4=O)CC3)CC2)c(=O)n(CCC(CC)CC)c1=O")
"> 100 µM"
>>> value("NCCCCN(Cc1nc2ccccc2[nH]1)[C@H]1CCCc2cccnc21")
"> 100 µM"
>>> value("COc1cc(/C=C2/C(=O)NC(Cc3cc(OC)c(OC)c(C)c3OC)C(=O)N2Cc2ccccc2)c(OC)c(C)c1OC (stereo not drawn)")
"> 100 µM"
>>> value("COc1cc(C(=O)CC2(O)C(=O)Nc3c(Cl)cc(Cl)cc32)ccc1O (stereo not drawn)")
"> 100 µM"
>>> value("Cc1nn(C(=O)Cc2ccccc2)c2c1C(c1ccccc1[N+](=O)[O-])SC(N)=N2 (stereo not drawn)")
"> 100 µM"
>>> value("O/N=C1\\CCc2cc3c(cc21)CCC3")
"> 100 µM"
>>> value("CC[C@](C)(O)C(=O)O[C@H]1C(=O)O[C@@H]2C[C@H]3C(C)=C[C@H](O)[C@@H](O)[C@]3(C)[C@H]3[C@@]4(O)OC[C@]32[C@@H]1[C@@H](C)[C@H]4O")
"310 µM"
>>> value("COC(=O)c1cc2oc(/C=C3\\SC(=S)N(NC(C)=O)C3=O)cc2n1Cc1ccccc1")
"20.8 µM"
>>> value("[C-]#[N+]C(C)(C)C[C@H]1CC(C)C2CCC(C)C3([N+]#[C-])CCC(=C)C1[C@H]23 (stereo partly drawn)")
"8.85 µM"
>>> value("C1=NCCNCCN=Cc2ccccc2OCc2cccc(n2)COc2ccccc21")
"> 100 µM"
>>> value("[O-]c1c[n+](CC[n+]2cc([O-])on2)no1")
"> 100 µM"
>>> value("Cc1nn(-c2nc3ccccc3[nH]2)c2c1C(c1ccc3c(c1)OCO3)CC(=O)N2 (stereo not drawn)")
"9.77 µM"
>>> value("O=C(/C=C/c1ccc(C(F)(F)F)cc1)c1ccc(Nc2nc(NCCO)nc(N3CCOCC3)n2)cc1")
"5.69 µM"
>>> value("CC12CC3CC(C1)CC(N=[N+]=[N-])(C3)C2")
"> 100 µM"
>>> value("CN(C)/C=C/c1ccncc1")
"> 100 µM"
>>> value("Cc1ccc(CCCCCOc2ccc(C3=NCCO3)cc2)s1")
"> 100 µM"
>>> value("COC(=O)CC1(O)C(/C=C/c2ccccc2)C(C(=O)OC)C(=O)C(C(=O)OC)C1C(=O)OC (stereo not drawn)")
"> 100 µM"
>>> value("Cc1csc2nc3[nH]ncc3c(=O)n12")
"> 100 µM"
>>> value("O=C(CCCCCCC(=O)Nc1ccc2c(c1)/C(=C/c1ccc[nH]1)C(=O)N2)NO")
"26.5 µM"
>>> value("COC(=O)C(CC(=O)Nc1ccc(Cl)c(Cl)c1)C(=O)C(=O)NC1C2CC3CC(C2)CC1C3 (stereo not drawn)")
"> 100 µM"
>>> value("Cc1ccc(/C=C2\\CCCC\\C2=N\\O)cc1")
"> 100 µM"
>>> value("C=C(C)[C@H](O)C(O)CC(C)[C@@H]1CCC23CC12CCC1[C@@]2(C)CCC(OC(C)=O)C(C)(C)C2CC(OC2OC(COC(C)=O)C(O)C(O)C2O)[C@]13C (stereo partly drawn)")
"13 µM"
>>> value("CC(C)C[C@@H]1NC(=O)[C@@H]2CCCN2C(=O)[C@@H]2CCCN2C(=O)[C@H](CC(C)C)NC(=O)[C@H](CO)NC(=O)[C@H](CCCCN)NC(=O)[C@H]([C@H](C)O)NC(=O)[C@@H]2CCCC[C@@H](NC1=O)C(=O)N[C@@H](Cc1ccccc1)C(=O)N1CCC[C@H]1C(=O)N[C@@H](CC(=O)O)C(=O)NCC(=O)N[C@@H](CCCN=C(N)N)C(=O)N2")
"> 50 µM"
